- TEST_SYSTEM: Glutamate receptor ionotropic, AMPA (Mus musculus) (UniProt P23819+P23818+Q9Z2W8+Q9Z2W9)
- Sequence (P23818 whole entry, looked up): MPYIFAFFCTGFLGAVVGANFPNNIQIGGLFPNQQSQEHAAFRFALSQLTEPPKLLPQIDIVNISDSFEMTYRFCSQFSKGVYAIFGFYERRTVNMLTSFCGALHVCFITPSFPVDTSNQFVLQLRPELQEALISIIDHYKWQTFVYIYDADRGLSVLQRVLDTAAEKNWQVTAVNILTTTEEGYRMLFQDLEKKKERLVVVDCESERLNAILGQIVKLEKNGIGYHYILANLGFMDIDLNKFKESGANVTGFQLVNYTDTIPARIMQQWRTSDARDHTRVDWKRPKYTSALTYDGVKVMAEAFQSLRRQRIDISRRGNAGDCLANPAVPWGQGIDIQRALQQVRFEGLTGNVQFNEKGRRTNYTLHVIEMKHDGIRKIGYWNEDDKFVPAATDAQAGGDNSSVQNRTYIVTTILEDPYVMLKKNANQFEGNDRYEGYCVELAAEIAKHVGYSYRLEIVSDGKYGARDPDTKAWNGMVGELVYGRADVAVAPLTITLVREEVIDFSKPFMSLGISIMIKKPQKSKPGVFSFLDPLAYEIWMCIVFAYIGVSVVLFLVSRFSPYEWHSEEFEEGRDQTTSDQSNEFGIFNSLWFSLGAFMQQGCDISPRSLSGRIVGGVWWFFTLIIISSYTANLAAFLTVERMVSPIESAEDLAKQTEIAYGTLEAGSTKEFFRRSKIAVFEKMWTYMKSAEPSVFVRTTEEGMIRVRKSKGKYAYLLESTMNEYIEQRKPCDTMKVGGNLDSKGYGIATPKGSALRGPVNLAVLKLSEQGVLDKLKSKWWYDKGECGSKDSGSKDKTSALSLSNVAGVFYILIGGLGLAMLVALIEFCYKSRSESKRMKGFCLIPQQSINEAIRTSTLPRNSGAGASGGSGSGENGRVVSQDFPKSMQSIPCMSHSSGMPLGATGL
- Sequence (P23819 whole entry, looked up): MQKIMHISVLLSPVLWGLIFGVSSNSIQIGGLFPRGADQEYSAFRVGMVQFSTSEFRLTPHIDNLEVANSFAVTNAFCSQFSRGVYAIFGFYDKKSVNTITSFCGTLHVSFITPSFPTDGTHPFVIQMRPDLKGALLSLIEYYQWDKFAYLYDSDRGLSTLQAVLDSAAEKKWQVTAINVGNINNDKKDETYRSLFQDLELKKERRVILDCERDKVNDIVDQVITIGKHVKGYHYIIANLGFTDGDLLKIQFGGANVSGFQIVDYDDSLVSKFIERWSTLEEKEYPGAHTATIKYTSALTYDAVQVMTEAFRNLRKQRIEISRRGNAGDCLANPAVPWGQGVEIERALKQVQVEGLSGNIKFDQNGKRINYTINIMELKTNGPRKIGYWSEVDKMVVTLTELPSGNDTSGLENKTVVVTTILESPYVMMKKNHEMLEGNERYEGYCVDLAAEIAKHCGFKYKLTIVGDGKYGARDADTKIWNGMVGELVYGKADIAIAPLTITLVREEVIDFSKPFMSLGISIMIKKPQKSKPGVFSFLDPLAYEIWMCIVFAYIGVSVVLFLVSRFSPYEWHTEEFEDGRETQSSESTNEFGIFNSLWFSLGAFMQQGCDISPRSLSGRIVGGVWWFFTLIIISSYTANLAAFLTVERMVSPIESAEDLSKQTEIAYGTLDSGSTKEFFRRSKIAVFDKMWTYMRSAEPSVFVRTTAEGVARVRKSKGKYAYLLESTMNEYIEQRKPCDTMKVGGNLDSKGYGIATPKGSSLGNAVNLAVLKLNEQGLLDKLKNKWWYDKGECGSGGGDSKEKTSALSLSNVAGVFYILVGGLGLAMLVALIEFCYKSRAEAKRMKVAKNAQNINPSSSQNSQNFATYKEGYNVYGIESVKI
- Sequence (Q9Z2W8 whole entry, looked up): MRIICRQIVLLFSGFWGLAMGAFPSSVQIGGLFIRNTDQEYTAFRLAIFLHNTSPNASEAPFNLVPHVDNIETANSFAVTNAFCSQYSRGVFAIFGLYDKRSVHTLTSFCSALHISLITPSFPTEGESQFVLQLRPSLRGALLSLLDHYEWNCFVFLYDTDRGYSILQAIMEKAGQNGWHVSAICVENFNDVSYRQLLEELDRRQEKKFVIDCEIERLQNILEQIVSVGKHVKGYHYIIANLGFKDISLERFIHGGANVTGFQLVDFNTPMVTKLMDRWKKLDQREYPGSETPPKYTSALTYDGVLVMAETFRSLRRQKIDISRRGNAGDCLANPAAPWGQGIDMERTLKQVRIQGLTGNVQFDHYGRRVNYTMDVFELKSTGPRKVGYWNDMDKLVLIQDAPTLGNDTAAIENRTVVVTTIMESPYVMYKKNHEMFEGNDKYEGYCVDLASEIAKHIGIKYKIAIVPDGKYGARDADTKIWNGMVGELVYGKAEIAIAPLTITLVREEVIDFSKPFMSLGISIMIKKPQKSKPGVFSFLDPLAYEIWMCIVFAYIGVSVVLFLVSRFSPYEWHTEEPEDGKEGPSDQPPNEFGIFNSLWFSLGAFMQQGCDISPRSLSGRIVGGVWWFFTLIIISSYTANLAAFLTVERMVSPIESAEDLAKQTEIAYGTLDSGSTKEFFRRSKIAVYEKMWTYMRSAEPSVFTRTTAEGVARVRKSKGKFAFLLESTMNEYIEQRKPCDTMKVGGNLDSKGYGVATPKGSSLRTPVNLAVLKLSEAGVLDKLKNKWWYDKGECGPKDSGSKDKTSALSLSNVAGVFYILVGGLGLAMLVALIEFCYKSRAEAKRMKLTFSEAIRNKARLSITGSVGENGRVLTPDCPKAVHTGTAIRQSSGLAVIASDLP
- Sequence (Q9Z2W9 whole entry, looked up): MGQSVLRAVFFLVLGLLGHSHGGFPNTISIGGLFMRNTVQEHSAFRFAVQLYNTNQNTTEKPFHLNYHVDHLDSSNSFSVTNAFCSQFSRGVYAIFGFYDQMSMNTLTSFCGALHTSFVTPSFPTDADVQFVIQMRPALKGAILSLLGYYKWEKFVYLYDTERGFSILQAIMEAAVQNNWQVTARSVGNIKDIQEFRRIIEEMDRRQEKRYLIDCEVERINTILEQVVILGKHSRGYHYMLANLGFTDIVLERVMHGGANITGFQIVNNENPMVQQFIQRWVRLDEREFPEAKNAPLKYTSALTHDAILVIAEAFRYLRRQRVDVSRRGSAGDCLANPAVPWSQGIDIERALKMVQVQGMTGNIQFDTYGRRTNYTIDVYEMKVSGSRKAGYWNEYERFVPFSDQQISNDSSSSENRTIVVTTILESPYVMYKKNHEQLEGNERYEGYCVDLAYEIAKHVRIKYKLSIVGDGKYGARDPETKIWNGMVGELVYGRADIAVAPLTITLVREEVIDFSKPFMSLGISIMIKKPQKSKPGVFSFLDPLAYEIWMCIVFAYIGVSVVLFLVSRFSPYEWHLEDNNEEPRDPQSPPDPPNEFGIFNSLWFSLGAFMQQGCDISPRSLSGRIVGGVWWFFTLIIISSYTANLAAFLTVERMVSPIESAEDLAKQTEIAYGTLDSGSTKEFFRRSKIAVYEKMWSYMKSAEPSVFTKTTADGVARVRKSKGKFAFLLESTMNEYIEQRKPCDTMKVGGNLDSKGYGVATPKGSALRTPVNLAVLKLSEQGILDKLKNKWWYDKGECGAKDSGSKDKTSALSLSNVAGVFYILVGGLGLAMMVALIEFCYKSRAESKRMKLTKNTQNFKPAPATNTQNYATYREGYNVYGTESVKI
- ASSAY: In vivo anticonvulsant activity was measured as median effective dose required to prevent clonic phase of seizure in DBA/2 mice
- Format: functional, organism-based
Rule: ED50 below 60 µmol/kg gives Fulfilled. Equal to or above 60 µmol/kg gives Not fulfilled.

Example results:
>  <COMPOUND>
COc1cc2c(cc1OC)C(c1cccc([N+](=O)[O-])c1)NCC2 (stereo not given)

>  <CLASS_LABEL>
Fulfilled

$$$$
>  <COMPOUND>
COc1cc2c(O)nnc(-c3cccc([N+](=O)[O-])c3)c2cc1OC

>  <CLASS_LABEL>
Not fulfilled

$$$$
>  <COMPOUND>
COc1cc2c(cc1OC)C(c1ccc([N+](=O)[O-])cc1)=Nn1c(O)nnc1C2

>  <CLASS_LABEL>
Not fulfilled

$$$$
>  <COMPOUND>
COc1cc2c(cc1OC)C(c1ccc([N+](=O)[O-])cc1)=Nn1c(C)nnc1C2

>  <CLASS_LABEL>
Not fulfilled

$$$$
>  <COMPOUND>
COc1cc2c(cc1OC)C(c1cccc([N+](=O)[O-])c1)N(C(C)=O)CC2 (stereo not given)

>  <CLASS_LABEL>
Fulfilled

$$$$
>  <COMPOUND>
COc1cc2c(cc1OC)C(c1ccc(N)cc1)=NN(C)C(=O)C2

>  <CLASS_LABEL>
Fulfilled

$$$$
>  <COMPOUND>
COc1ccc2c(c1)CC(=O)NN1C(c3ccccc3)=NOC21c1ccccc1 (stereo not given)

>  <CLASS_LABEL>
Not fulfilled

$$$$
>  <COMPOUND>
COc1cc2c(cc1OC)C(c1ccc(N)cc1)=NNC(=O)C2

>  <CLASS_LABEL>
Fulfilled

$$$$

Incoming: API: query returns whether the compound falls strictly under 60 µmol/kg in ED50. Query: COc1cc2c(cc1OC)C(c1ccc(Cl)cc1)=NNC(=O)C2
Outgoing: Not fulfilled

Incoming: API: query returns whether the compound falls strictly under 60 µmol/kg in ED50. Query: COc1cc2c(cc1OC)C(c1ccccc1)=NN(C)C(=O)C2
Outgoing: Fulfilled

###

- TEST_SYSTEM: Glutamate receptor ionotropic, AMPA (Mus musculus) (UniProt P23819+P23818+Q9Z2W8+Q9Z2W9)
- ASSAY: In vivo anticonvulsant activity was measured as median effective dose required to prevent clonic phase of seizure in DBA/2 mice
- Type: functional, organism-based
Recorded ED50, one value per entry.
Report only the number, with the unit µmol/kg understood.

Incoming: Returns the measured ED50 for the input compound. Input: Nc1cccc(-c2nnc(O)c3cc4c(cc23)OCO4)c1
Outgoing: 23.3

Incoming: Returns the measured ED50 for the input compound. Input: Nc1ccc(-c2nnc(O)c3cc4c(cc23)OCO4)cc1
Outgoing: 21.2

Incoming: Returns the measured ED50 for the input compound. Input: COc1cc2c(cc1OC)C(c1ccc(Br)cc1)=NN=C(S)C2
Outgoing: 52.1

Incoming: Returns the measured ED50 for the input compound. Input: COc1cc2c(cc1OC)C(c1cccc(N)c1)=Nn1c(O)nnc1C2
Outgoing: 20.1

###

Recorded log10 of ED50, one value per entry.
- TEST_SYSTEM: Glutamate receptor ionotropic, AMPA (Mus musculus) (UniProt P23819+P23818+Q9Z2W8+Q9Z2W9)
- ASSAY: In vivo anticonvulsant activity was measured as median effective dose required to prevent tonic phase of seizure in DBA/2 mice
- Assay type: functional, organism-based
For clarity, the numbers are log10 values of ED50 expressed in µmol/kg.

Example entries begin here.
>  <COMPOUND>
CCCNC(=O)n1nc(-c2ccc(N)cc2)c2cc3c(cc2c1=O)OCO3

>  <TEST_SYSTEM>
Glutamate receptor ionotropic, AMPA (Mus musculus) (UniProt P23819+P23818+Q9Z2W8+Q9Z2W9)

>  <log10 of ED50>
0.83

$$$$
>  <COMPOUND>
COc1ccc2c(c1)CC(=O)NN1C(c3ccccc3)=NOC21c1ccccc1 (centres undefined)

>  <TEST_SYSTEM>
Glutamate receptor ionotropic, AMPA (Mus musculus) (UniProt P23819+P23818+Q9Z2W8+Q9Z2W9)

>  <log10 of ED50>
2.00

$$$$

Incoming: Returns the measured log10 of ED50 for the input compound. Input: Nc1cccc(C2=NNC(=O)Cc3cc4c(cc32)OCO4)c1
Outgoing: 1.10

Incoming: Returns the measured log10 of ED50 for the input compound. Input: COc1cc2c(cc1OC)C(c1cccc([N+](=O)[O-])c1)N(C(C)=O)CC2 (centres undefined)
Outgoing: 1.10

Incoming: Returns the measured log10 of ED50 for the input compound. Input: COc1cc2c(cc1OC)C(c1ccccc1)=Nn1c(O)nnc1C2
Outgoing: 1.44

Incoming: Returns the measured log10 of ED50 for the input compound. Input: COc1cc2c(cc1OC)C(c1ccc([N+](=O)[O-])cc1)=NN=C(S)C2
Outgoing: 1.84

Incoming: Returns the measured log10 of ED50 for the input compound. Input: COc1cc2c(cc1OC)C(c1cccc([N+](=O)[O-])c1)NCC2 (centres undefined)
Outgoing: 0.86

Incoming: Returns the measured log10 of ED50 for the input compound. Input: COc1cc2c(cc1OC)C(c1ccc([N+](=O)[O-])cc1)=Nn1c(C)nnc1C2
Outgoing: 1.77

Incoming: Returns the measured log10 of ED50 for the input compound. Input: COc1cc2c(cc1OC)C(c1ccccc1)=NNC(=O)C2
Outgoing: 1.50

###

- TEST_SYSTEM: Glutamate receptor ionotropic, AMPA (Mus musculus) (UniProt P23819+P23818+Q9Z2W8+Q9Z2W9)
- ASSAY: In vivo anticonvulsant activity was measured as median effective dose required to prevent tonic phase of seizure in DBA/2 mice
- Type: functional, organism-based
READOUT_NAME: log10(ED50) (log10 of the value in µmol/kg)
For clarity, the numbers are log10 values of ED50 expressed in µmol/kg.

Example entries begin here.
>  <COMPOUND>
O=C1Cc2cc3c(cc2C(c2ccc(O)cc2)=NN1)OCO3

>  <log10(ED50)>
1.70

$$$$
>  <COMPOUND>
Nc1ccc(-c2nnc(O)c3cc4c(cc23)OCO4)cc1

>  <log10(ED50)>
0.88

$$$$
>  <COMPOUND>
Nc1ccc(C2=NNC(=O)Cc3cc4c(cc32)OCO4)cc1

>  <log10(ED50)>
1.04

$$$$
>  <COMPOUND>
O=C1Cc2cc3c(cc2C(c2ccccc2)=NN1)OCO3

>  <log10(ED50)>
1.61

$$$$
>  <COMPOUND>
COc1cc2c(cc1OC)C(c1ccc(N)cc1)=NNC(=O)C2

>  <log10(ED50)>
1.10

$$$$
>  <COMPOUND>
COc1cc2c(cc1OC)C(c1ccc(N)cc1)=Nn1c(O)nnc1C2

>  <log10(ED50)>
1.01

$$$$
>  <COMPOUND>
Nc1cccc(-c2nnc(O)c3cc4c(cc23)OCO4)c1

>  <log10(ED50)>
1.20

$$$$
>  <COMPOUND>
COc1cc2c(-c3cccc(N)c3)nn(C)c(=O)c2cc1OC

>  <log10(ED50)>
1.74

$$$$
>  <COMPOUND>
COc1cc2c(cc1OC)C(c1ccc(Cl)cc1)NCC2 (stereo not given)

>  <log10(ED50)>
1.29

$$$$
>  <COMPOUND>
COc1cc2c(cc1OC)C(c1ccc([N+](=O)[O-])cc1)NCC2 (stereo not given)

>  <log10(ED50)>
1.75

$$$$

Incoming: Returns the measured log10(ED50) for the input compound. Input: COc1cc2c(cc1OC)C(c1cccc(N)c1)=Nn1c(O)nnc1C2
Outgoing: 1.12

Incoming: Returns the measured log10(ED50) for the input compound. Input: COc1cc2c(cc1OC)C(c1ccc(Br)cc1)=NN=C(S)C2
Outgoing: 1.52

Incoming: Returns the measured log10(ED50) for the input compound. Input: O=C1Cc2cc3c(cc2C(c2ccc(F)cc2)=NN1)OCO3
Outgoing: 1.80

Incoming: Returns the measured log10(ED50) for the input compound. Input: COc1cc2c(cc1OC)C(c1ccc(Br)cc1)NCC2 (stereo not given)
Outgoing: 1.10

Incoming: Returns the measured log10(ED50) for the input compound. Input: COc1cc2c(cc1OC)C(c1ccc(N(C(C)=O)C(C)=O)cc1)=NN(C(C)=O)C(=O)C2
Outgoing: 1.64

Incoming: Returns the measured log10(ED50) for the input compound. Input: COc1cc2c(cc1OC)C(c1ccc([N+](=O)[O-])cc1)=Nn1c(O)nnc1C2
Outgoing: 1.77

Incoming: Returns the measured log10(ED50) for the input compound. Input: COc1ccc2c(c1)CC(=O)N(C)N=C2c1ccccc1
Outgoing: 2.00

Incoming: Returns the measured log10(ED50) for the input compound. Input: COc1cc2c(O)nnc(-c3cccc([N+](=O)[O-])c3)c2cc1OC
Outgoing: 1.88

Incoming: Returns the measured log10(ED50) for the input compound. Input: CN1N=C(c2ccccc2)c2cc3c(cc2CC1=O)OCO3
Outgoing: 1.85

Incoming: Returns the measured log10(ED50) for the input compound. Input: COc1cc2c(cc1OC)C(c1ccc(Cl)cc1)=NN(C)C(=O)C2
Outgoing: 1.59

Incoming: Returns the measured log10(ED50) for the input compound. Input: Oc1nnc(-c2ccccc2)c2cc3c(cc12)OCO3
Outgoing: 1.50

Incoming: Returns the measured log10(ED50) for the input compound. Input: COc1cc2c(cc1OC)C(c1ccc(Br)cc1)=NN(C)C(=S)C2
Outgoing: 1.78

Incoming: Returns the measured log10(ED50) for the input compound. Input: COc1cc2c(O)nnc(-c3ccc(N)cc3)c2cc1OC
Outgoing: 1.72

Incoming: Returns the measured log10(ED50) for the input compound. Input: COc1cc2c(cc1OC)C(c1ccc(F)cc1)=NNC(=O)C2
Outgoing: 1.76

Incoming: Returns the measured log10(ED50) for the input compound. Input: CC1=NN=C(c2ccc(N)cc2)c2cc3c(cc2C1)OCO3
Outgoing: 1.40

Incoming: Returns the measured log10(ED50) for the input compound. Input: CN1N=C(c2ccc(N)cc2)c2cc3c(cc2CC1=O)OCO3
Outgoing: 1.47

Incoming: Returns the measured log10(ED50) for the input compound. Input: COc1cc2c(cc1OC)C(c1ccccc1)=NN(C)C(=S)C2
Outgoing: 1.39

Incoming: Returns the measured log10(ED50) for the input compound. Input: COc1cc2c(cc1OC)C(c1ccc(Cl)cc1)=NN=C(S)C2
Outgoing: 1.74

Incoming: Returns the measured log10(ED50) for the input compound. Input: COc1cc2c(cc1OC)C(c1cccc(N)c1)=NN=C(S)C2
Outgoing: 0.96

Incoming: Returns the measured log10(ED50) for the input compound. Input: CNC(=O)n1nc(-c2ccc(N)cc2)c2cc3c(cc2c1=O)OCO3
Outgoing: 1.23

Incoming: Returns the measured log10(ED50) for the input compound. Input: COc1cc2c(cc1OC)C(c1ccc(N)cc1)=Nn1c(C)nnc1C2
Outgoing: 1.65
